- system-name: CD3εδ-Ig heterodimer (human) (UniProt P07766)
- Sequence (P07766 23-126, stated change not applied, chain 1 of 2): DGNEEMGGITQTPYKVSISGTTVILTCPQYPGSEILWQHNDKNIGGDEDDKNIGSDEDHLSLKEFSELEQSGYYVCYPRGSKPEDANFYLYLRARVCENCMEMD
- Sequence (P04234 22-105, stated change not applied, chain 2 of 2, further chain): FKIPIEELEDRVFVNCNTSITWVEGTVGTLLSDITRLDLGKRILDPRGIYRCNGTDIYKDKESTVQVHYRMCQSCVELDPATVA
- assay-summary: BIACORE (SPR), fusion protein immobilized, peptide in solution; printed as Binding Affinity
Bridge positions count the residues as written; N and C are the ends. Ends that are not written are not given here.
test-readout: Kd (µM)

[A] YCYDYDGCY (disulfide 2-8 (inferred)) [… (SEQ ID NO:75)]
[B] YCFDWKNCY (disulfide 2-8 (inferred)) [… (SEQ ID NO:80)]
Ask | Which value of Kd is greater, the one for A or the one for B ? To answer, give the label that identifies your chosen option.
Reply | A
(A: 10 µM, B: 0.5 µM)
